test system: Shigella sonnei; experiment: Antibacterial activity against Shigella sonnei ATCC 15305 assessed as growth inhibition after 24 hrs by micro dilution method; format: functional; details: ATCC 15305, 24 h
readout.name: MIC (mg/L)

(I) Cc1ccc2c(c1)C(O)C(Cc1ccccc1)(Cc1ccccc1)C(=O)N2 (stereo not drawn)
(II) CCN1C(=O)C(Cc2ccccc2)(Cc2ccccc2)C(O)c2ccccc21 (stereo not drawn)
(III) O=C1Nc2ccccc2C(O)C1(Cc1ccccc1Cl)Cc1ccccc1Cl (stereo not drawn)
Input: Please put the entries in order of rising MIC. # output: labels, in the requested order
Output: III, I, II
(III: 12.5 mg/L, I: 50 mg/L, II: 200 mg/L)
